Endpoint: pIC50. System: Norepinephrine transporter (Rattus norvegicus, UniProt Q9WTR4). Items follow.
Sequence (Q9WTR4 whole entry): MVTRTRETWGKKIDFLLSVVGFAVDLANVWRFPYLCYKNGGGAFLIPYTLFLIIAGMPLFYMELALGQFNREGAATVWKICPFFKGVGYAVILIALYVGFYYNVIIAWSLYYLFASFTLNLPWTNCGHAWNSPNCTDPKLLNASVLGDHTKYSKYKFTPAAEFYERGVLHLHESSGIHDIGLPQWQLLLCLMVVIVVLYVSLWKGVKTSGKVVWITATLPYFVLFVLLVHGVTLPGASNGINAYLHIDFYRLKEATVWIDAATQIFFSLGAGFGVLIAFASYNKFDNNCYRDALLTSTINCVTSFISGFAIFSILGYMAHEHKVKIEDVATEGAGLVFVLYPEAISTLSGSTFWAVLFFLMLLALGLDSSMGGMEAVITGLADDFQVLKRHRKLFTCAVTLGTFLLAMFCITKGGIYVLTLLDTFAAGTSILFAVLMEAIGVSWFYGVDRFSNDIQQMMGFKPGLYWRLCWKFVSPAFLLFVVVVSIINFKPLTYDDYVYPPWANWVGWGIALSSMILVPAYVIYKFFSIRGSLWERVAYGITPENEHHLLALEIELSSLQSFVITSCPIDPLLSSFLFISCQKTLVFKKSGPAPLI
To interpret pIC50, take it as minus log10 of a concentration measured in moles per litre.

See these solved cases before continuing.
{"columns": ["molecule", "pIC50"],
 "data": [
  ["COC(=O)C1C2CCC(CC1c1ccc(F)c(C)c1)N2 (stereo unspecified)", 8.37],
  ["COC(=O)C1C(c2ccc(F)c(C)c2)CC2CCC1N2C (stereo unspecified)", 6.83],
  ["COC(=O)C1C2CCC(CC1c1ccc(C)c(F)c1)N2 (stereo unspecified)", 9.07],
  ["COC(=O)C1C2CCC(CC1c1ccc(F)c(F)c1)N2 (stereo unspecified)", 8.20],
  ["COC(=O)C1C2CCC(CC1c1cccc(F)c1)N2 (stereo unspecified)", 8.01]
]}

Next molecule, pIC50 to be filled in.
Task item: Please tell me the measured pIC50 for COC(=O)C1C2CCC(CC1c1cc(F)cc(F)c1)N2 (stereo unspecified) ; system: Norepinephrine transporter (Rattus norvegicus, UniProt Q9WTR4).
Reply: 8.39

====

Biological target: Sodium-dependent serotonin transporter (Rattus norvegicus, UniProt P31652)
Sequence (P31652 whole entry): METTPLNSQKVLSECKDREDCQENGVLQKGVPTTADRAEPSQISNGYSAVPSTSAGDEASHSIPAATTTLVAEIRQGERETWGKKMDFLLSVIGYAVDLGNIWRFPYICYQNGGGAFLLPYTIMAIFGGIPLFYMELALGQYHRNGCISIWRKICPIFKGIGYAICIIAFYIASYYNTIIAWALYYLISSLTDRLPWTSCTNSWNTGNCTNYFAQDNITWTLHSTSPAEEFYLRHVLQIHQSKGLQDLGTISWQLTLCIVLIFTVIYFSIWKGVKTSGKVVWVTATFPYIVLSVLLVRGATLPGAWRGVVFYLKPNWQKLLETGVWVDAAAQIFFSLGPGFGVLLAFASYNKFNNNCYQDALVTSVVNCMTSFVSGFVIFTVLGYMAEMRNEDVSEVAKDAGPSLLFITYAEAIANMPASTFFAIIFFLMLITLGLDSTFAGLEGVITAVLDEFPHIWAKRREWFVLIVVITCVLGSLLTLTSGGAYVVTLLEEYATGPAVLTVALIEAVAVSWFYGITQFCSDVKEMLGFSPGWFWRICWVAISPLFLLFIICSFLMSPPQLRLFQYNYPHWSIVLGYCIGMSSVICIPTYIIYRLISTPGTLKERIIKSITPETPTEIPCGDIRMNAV
Kindly apply the following: YES if Ki is less than 0.03 µM, NO in every other case.

{"columns": ["molecule", "cat"],
 "data": [
  ["COC(=O)C1C(c2ccc(F)c(C)c2)CC2CCC1N2C (configuration not stated)", "NO"],
  ["COC(=O)C1C2CCC(CC1c1cccc(F)c1)N2 (configuration not stated)", "YES"],
  ["COC(=O)C1C2CCC(CC1c1ccc(F)c(F)c1)N2 (configuration not stated)", "NO"],
  ["COC(=O)C1C(c2ccc(C)c(F)c2)CC2CCC1N2C (configuration not stated)", "NO"],
  ["COC(=O)C1C2CCC(CC1c1ccc(C)c(F)c1)N2 (configuration not stated)", "YES"],
  ["COC(=O)C1C2CCC(CC1c1ccc(F)c(C)c1)N2 (configuration not stated)", "YES"]
]}

Task item: Given COC(=O)C1C2CCC(CC1c1cc(F)cc(F)c1)N2 (configuration not stated) , is recorded Ki strictly lower than 0.03 µM?
Reply: YES
